Data credit: patent US20230192808A1

- MEASURED_ON: T1, HLA-DRB1*04:01 G86L (human)
- T1 construct: pocket 1 variant on T2 cells
- EXPERIMENT: flow cytometry, biotinylated peptide on HLA-expressing T2 cells, streptavidin-PE
Where no end group is shown, it is not given here.
QUANTITY_MEASURED: binding result

INSERT INTO assay_data (binder, meas_value) VALUES
  ('ENPVVHFFKNIVTPRTPPP (also: biotinylated, site not given here) [MBP^83-101 peptide]', 'binds'),
  ('AQGTLSKIFKLGGRDSRSGSPMARR (also: biotinylated, site not given here) [MBP^146-170 peptide]', 'binds');
